assayed.target: human MMP14 (Homo sapiens, UniProt P50281)
pIC50: −log10 of the molar value.
quantity.measured: pIC50

[
  {
    "molecule": "CC#CCOc1ccc(S(=O)(=O)CC(c2ccc(CNS(C)(=O)=O)cc2)N(O)C=O)cc1 (centres unmarked)",
    "value.observed": 5.67
  },
  {
    "molecule": "CNC(=O)[C@H](Cc1c[nH]c2ccccc12)NC(=O)[C@@H](CC(=O)NO)CC(C)C",
    "value.observed": 8.53
  }
]

====

assayed.target: human MMP13 (Homo sapiens, UniProt P45452)

[
  {
    "compound": "CC#CCOc1ccc(S(=O)(=O)CC(c2ccc(CNS(C)(=O)=O)cc2)N(O)C=O)cc1 (centres unmarked)",
    "assayed.target": "human MMP13 (Homo sapiens, UniProt P45452)",
    "value.units": "µM",
    "IC50": 0.93
  },
  {
    "compound": "CNC(=O)[C@H](Cc1c[nH]c2ccccc12)NC(=O)[C@@H](CC(=O)NO)CC(C)C",
    "assayed.target": "human MMP13 (Homo sapiens, UniProt P45452)",
    "value.units": "µM",
    "IC50": 0.000435
  }
]

====

assayed.target: human MMP2 (Homo sapiens)
Construct: purchased EMD Millipore
Sequence (P08253 110-660): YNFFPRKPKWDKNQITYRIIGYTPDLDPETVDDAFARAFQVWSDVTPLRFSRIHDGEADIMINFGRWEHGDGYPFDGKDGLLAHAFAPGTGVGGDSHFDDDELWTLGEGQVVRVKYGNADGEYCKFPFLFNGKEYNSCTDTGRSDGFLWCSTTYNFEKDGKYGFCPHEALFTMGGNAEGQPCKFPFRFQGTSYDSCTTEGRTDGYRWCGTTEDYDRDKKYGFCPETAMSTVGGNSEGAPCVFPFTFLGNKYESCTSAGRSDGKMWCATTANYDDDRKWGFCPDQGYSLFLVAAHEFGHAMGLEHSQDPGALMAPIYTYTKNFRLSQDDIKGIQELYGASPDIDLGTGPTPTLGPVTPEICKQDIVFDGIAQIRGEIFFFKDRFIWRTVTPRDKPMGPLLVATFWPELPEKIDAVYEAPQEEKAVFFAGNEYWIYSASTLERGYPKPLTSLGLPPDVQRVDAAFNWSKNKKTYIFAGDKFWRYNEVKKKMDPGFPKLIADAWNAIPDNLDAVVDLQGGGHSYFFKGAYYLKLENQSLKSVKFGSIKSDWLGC
assay.explanation: MMP and ADAM activity assay (fluorescence-based): MMP2
Format: biochemical
measurement.setup: cell-free fluorescence assay

[
  {
    "molecule": "CC#CCOc1ccc(S(=O)(=O)CC(c2ccc(CNS(C)(=O)=O)cc2)N(O)C=O)cc1 (stereo not shown)",
    "value.units": "nM",
    "IC50": 717
  }
]

====

assayed.target: human MMP17 (Homo sapiens, UniProt Q9ULZ9)
Sequence (Q9ULZ9 126-565 limits assumed): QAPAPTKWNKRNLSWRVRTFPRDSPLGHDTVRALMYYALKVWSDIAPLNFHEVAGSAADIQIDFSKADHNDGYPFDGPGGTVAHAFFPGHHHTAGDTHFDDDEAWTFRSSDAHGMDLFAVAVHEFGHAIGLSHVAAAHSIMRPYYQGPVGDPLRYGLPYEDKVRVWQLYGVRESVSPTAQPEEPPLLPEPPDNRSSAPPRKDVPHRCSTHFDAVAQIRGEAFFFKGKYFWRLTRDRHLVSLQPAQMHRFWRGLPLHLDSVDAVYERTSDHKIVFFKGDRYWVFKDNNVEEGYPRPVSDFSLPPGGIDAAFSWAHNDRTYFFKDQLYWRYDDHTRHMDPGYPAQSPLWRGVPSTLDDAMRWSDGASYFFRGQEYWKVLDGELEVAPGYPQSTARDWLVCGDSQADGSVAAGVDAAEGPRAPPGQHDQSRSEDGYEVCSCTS

[
  {
    "compound": "CNC(=O)[C@H](Cc1c[nH]c2ccccc12)NC(=O)[C@@H](CC(=O)NO)CC(C)C",
    "IC50, µM": 0.00516
  },
  {
    "compound": "CC#CCOc1ccc(S(=O)(=O)CC(c2ccc(CNS(C)(=O)=O)cc2)N(O)C=O)cc1 (centres unmarked)",
    "IC50, µM": 7.1
  }
]

====

Listed here: compounds with reported pIC50 for human ADAM10 (Homo sapiens).
pIC50: −log10 of the molar value.

[
  {
    "compound": "CC#CCOc1ccc(S(=O)(=O)CC(c2ccc(CNS(C)(=O)=O)cc2)N(O)C=O)cc1 (centres unmarked)",
    "pIC50": 6.13
  },
  {
    "compound": "CNC(=O)[C@H](Cc1c[nH]c2ccccc12)NC(=O)[C@@H](CC(=O)NO)CC(C)C",
    "pIC50": 6.19
  }
]
